Measured expression variation rate tagln of individual entries
Test system: tagln
Test: Real-time quantitative PCR of PLsis marker gene expression
Format: cell-based, human
Conditions: HepG2 cells, 24 hr exposure, relative value, control group = 1.0, GAPDH internal standard, n=3

- compound: "CN(C)CCCN1c2ccccc2CCc2ccccc21 [imipramine]"
  expression variation rate tagln: 0.15
- compound: "CNCCC(Oc1ccc(C(F)(F)F)cc1)c1ccccc1 (stereo not drawn) [fluoxetine]"
  expression variation rate tagln: 0.20
- compound: "CC(=O)N1CCN(c2ccc(OCC3COC(Cn4ccnc4)(c4ccc(Cl)cc4Cl)O3)cc2)CC1 (stereo not drawn) [ketoconazole]"
  expression variation rate tagln: 0.71
- compound: "CN1CCN(C2=Nc3cc(Cl)ccc3Nc3ccccc32)CC1 [clozapine]"
  expression variation rate tagln: 0.24
- compound: "CC/C(=C(\\c1ccccc1)c1ccc(OCCN(C)C)cc1)c1ccccc1 [tamoxifen]"
  expression variation rate tagln: 0.27
- compound: "O=C(CCCN1CCC(O)(c2ccc(Cl)cc2)CC1)c1ccc(F)cc1 [haloperidol]"
  expression variation rate tagln: 0.52
- compound: "C1CCC(C(CC2CCCCN2)C2CCCCC2)CC1 (stereo not drawn) [perhexiline]"
  expression variation rate tagln: 0.26
- compound: "Clc1ccccc1CNCC1CCC(CNCc2ccccc2Cl)CC1 (stereo not drawn) [AY-9944]"
  expression variation rate tagln: 0.21
- compound: "CCN(CC)CCNC(=O)c1ccc(N)cc1 [procainamide]"
  expression variation rate tagln: 0.85

====

Test system: fabp1
Experiment: Real-time quantitative PCR of PLsis marker gene expression
Type: cell-based, human
Conditions: HepG2 cells, 24 hr exposure, relative value, control group = 1.0, GAPDH internal standard, n=3
value.type: expression variation rate fabp1

- compound: "C1CCC(C(CC2CCCCN2)C2CCCCC2)CC1 (centres unmarked)"
  target: "fabp1"
  reported.result: 2.49
- compound: "C=C[C@H]1C[N@@]2CC[C@H]1C[C@@H]2[C@@H](O)c1ccnc2ccc(OC)cc12"
  target: "fabp1"
  reported.result: 1.38
- compound: "CC[C@H]1OC(=O)[C@H](C)[C@@H](O[C@H]2C[C@@](C)(OC)[C@@H](O)[C@H](C)O2)[C@H](C)[C@@H](O[C@@H]2O[C@H](C)C[C@H](N(C)C)[C@H]2O)[C@](C)(OC)C[C@@H](C)C(=O)[C@H](C)[C@@H](O)[C@]1(C)O"
  target: "fabp1"
  reported.result: 0.91
- compound: "O=C(CCCN1CCC(O)(c2ccc(Cl)cc2)CC1)c1ccc(F)cc1"
  target: "fabp1"
  reported.result: 1.50
- compound: "CN(C)CCC=C1c2ccccc2CCc2ccccc21"
  target: "fabp1"
  reported.result: 2.39
- compound: "CN(C)CCCN1c2ccccc2CCc2ccc(Cl)cc21"
  target: "fabp1"
  reported.result: 2.36
- compound: "CC(C)NCC(O)c1ccc(NS(C)(=O)=O)cc1 (centres unmarked)"
  target: "fabp1"
  reported.result: 0.98
- compound: "CNCCC(Oc1ccc(C(F)(F)F)cc1)c1ccccc1 (centres unmarked)"
  target: "fabp1"
  reported.result: 2.80

====

Tested on: HepG2 cells
Experiment: Electron-microscopic examination of PLsis induction potential (myelin-like structure)
value.type: frequency of appearance of myelin-like structure

- molecule: "C=C[C@H]1C[N@@]2CC[C@H]1C[C@@H]2[C@@H](O)c1ccnc2ccc(OC)cc12"
  target: "HepG2 cells"
  reported.result: "−"
- molecule: "CC1COc2c(N3CCN(C)CC3)c(F)cc3c(=O)c(C(=O)O)cn1c23 (stereo not shown)"
  target: "HepG2 cells"
  reported.result: "−"
- molecule: "CN(C)CCCN1c2ccccc2Sc2ccc(Cl)cc21"
  target: "HepG2 cells"
  reported.result: "++"
- molecule: "CC/C(=C(\\c1ccccc1)c1ccc(OCCN(C)C)cc1)c1ccccc1"
  target: "HepG2 cells"
  reported.result: "++"

====

System: HepG2 cells
Assay: Electron-microscopic examination of PLsis induction potential (myelin-like structure)
From the text: Using 30 kinds of the following commercially available drugs as test compounds, the level of PLsis induction potential was examined with the emergence of an intracellular myelin-like structure or a structure having a high electron density, which is an early image thereof, as an index by electronmicroscopic observation. HepG2 cells (purchased from ATCC) were exposed to the test compound by a conventional method. HepG2 cells used were of the cell growth phase. […]
value.type: frequency of appearance of myelin-like structure

- compound: "CN(C)C/C=C(/c1ccc(Br)cc1)c1cccnc1 [zimelidine]"
  reported.result: "+"
- compound: "CNCCC(Oc1ccc(C(F)(F)F)cc1)c1ccccc1 (stereo not drawn) [fluoxetine]"
  reported.result: "+++"
- compound: "CN(C)CCCN1c2ccccc2CCc2ccc(Cl)cc21 [clomipramine]"
  reported.result: "+"
- compound: "CN(C)CCC=C1c2ccccc2CCc2ccccc21 [amitriptyline]"
  reported.result: "+++"
- compound: "CC[C@H]1OC(=O)[C@H](C)[C@@H](O[C@H]2C[C@@](C)(OC)[C@@H](O)[C@H](C)O2)[C@H](C)[C@@H](O[C@@H]2O[C@H](C)C[C@H](N(C)C)[C@H]2O)[C@](C)(O)C[C@@H](C)C(=O)[C@H](C)[C@@H](O)[C@]1(C)O [erythromycin]"
  reported.result: "−"
- compound: "C[C@H]1COc2c(N3CCN(C)CC3)c(F)cc3c(=O)c(C(=O)O)cn1c23 [levofloxacin]"
  reported.result: "−"
- compound: "CC(C)NCC(O)c1ccc(NS(C)(=O)=O)cc1 (stereo not drawn) [sotalol]"
  reported.result: "−"
- compound: "CCCCc1oc2ccccc2c1C(=O)c1cc(I)c(OCCN(CC)CC)c(I)c1 [amiodarone]"
  reported.result: "++"
- compound: "CN1CCN(C2=Nc3cc(Cl)ccc3Nc3ccccc32)CC1 [clozapine]"
  reported.result: "++"
- compound: "CC(=O)N1CCN(c2ccc(OCC3COC(Cn4ccnc4)(c4ccc(Cl)cc4Cl)O3)cc2)CC1 (stereo not drawn) [ketoconazole]"
  reported.result: "+"
- compound: "CN1CCN(C(c2ccccc2)c2ccc(Cl)cc2)CC1 (stereo not drawn) [chlorcyclizine]"
  reported.result: "+++"
- compound: "CNS(=O)(=O)Cc1ccc2[nH]cc(CCN(C)C)c2c1 [sumatriptan]"
  reported.result: "−"
- compound: "CC(C)N(CCC(C(N)=O)(c1ccccc1)c1ccccn1)C(C)C (stereo not drawn) [disopyramide]"
  reported.result: "−"
- compound: "Clc1ccccc1CNCC1CCC(CNCc2ccccc2Cl)CC1 (stereo not drawn) [AY-9944]"
  reported.result: "++"
- compound: "O=C(CCCN1CCC(O)(c2ccc(Cl)cc2)CC1)c1ccc(F)cc1 [haloperidol]"
  reported.result: "−"
- compound: "O=C(NCC1CCCCN1)c1cc(OCC(F)(F)F)ccc1OCC(F)(F)F (stereo not drawn) [flecainide]"
  reported.result: "−"
- compound: "Cc1cc(NS(=O)(=O)c2ccc(N)cc2)no1 [sulfamethoxazole]"
  reported.result: "−"
- compound: "CCN(CC)CCNC(=O)c1ccc(N)cc1 [procainamide]"
  reported.result: "−"

====

Measured expression variation rate slc2a3 of individual entries
Test system: slc2a3
Test: Real-time quantitative PCR of PLsis marker gene expression
Format: cell-based, human
Settings: HepG2 cells, 24 hr exposure, relative value, control group = 1.0, GAPDH internal standard, n=3

- compound: "CN(C)CCCN1c2ccccc2CCc2ccccc21"
  expression variation rate slc2a3: 0.15
- compound: "CN[C@H]1CC[C@@H](c2ccc(Cl)c(Cl)c2)c2ccccc21"
  expression variation rate slc2a3: 0.14
- compound: "CN(C)C/C=C(/c1ccc(Br)cc1)c1cccnc1"
  expression variation rate slc2a3: 0.70
- compound: "CC[C@H]1OC(=O)[C@H](C)[C@@H](O[C@H]2C[C@@](C)(OC)[C@@H](O)[C@H](C)O2)[C@H](C)[C@@H](O[C@@H]2O[C@H](C)C[C@H](N(C)C)[C@H]2O)[C@](C)(OC)C[C@@H](C)C(=O)[C@H](C)[C@@H](O)[C@]1(C)O"
  expression variation rate slc2a3: 0.86
- compound: "CSc1ccc2c(c1)N(CCC1CCCCN1C)c1ccccc1S2 (centres unmarked)"
  expression variation rate slc2a3: 0.38

====

Tested on: flj22362
Assay: Real-time quantitative PCR of PLsis marker gene expression
Format: cell-based, human
Conditions: HepG2 cells, 24 hr exposure, relative value, control group = 1.0, GAPDH internal standard, n=3
hey, just use Fulfilled if measured expression variation rate flj22362 is less than 2, otherwise Not fulfilled

- molecule: "Clc1ccccc1CNCC1CCC(CNCc2ccccc2Cl)CC1 (centres unmarked) [AY-9944]"
  classification: "Fulfilled"
- molecule: "CN(C)CCCN1c2ccccc2CCc2ccc(Cl)cc21 [clomipramine]"
  classification: "Fulfilled"
- molecule: "C[C@H]1COc2c(N3CCN(C)CC3)c(F)cc3c(=O)c(C(=O)O)cn1c23 [levofloxacin]"
  classification: "Fulfilled"
- molecule: "N=C(N)c1ccc(OCCCCCOc2ccc(C(=N)N)cc2)cc1 [pentamidine]"
  classification: "Not fulfilled"
- molecule: "CC(C)N(CCC(C(N)=O)(c1ccccc1)c1ccccn1)C(C)C (centres unmarked) [disopyramide]"
  classification: "Fulfilled"
- molecule: "CNS(=O)(=O)Cc1ccc2[nH]cc(CCN(C)C)c2c1 [sumatriptan]"
  classification: "Fulfilled"
- molecule: "CC(C)NCC(O)c1ccc(NS(C)(=O)=O)cc1 (centres unmarked) [sotalol]"
  classification: "Fulfilled"
- molecule: "CN(C)CCCN1c2ccccc2Sc2ccc(Cl)cc21 [chlorpromazine]"
  classification: "Fulfilled"
- molecule: "CCCCc1oc2ccccc2c1C(=O)c1cc(I)c(OCCN(CC)CC)c(I)c1 [amiodarone]"
  classification: "Fulfilled"
- molecule: "O=C(NCC1CCCCN1)c1cc(OCC(F)(F)F)ccc1OCC(F)(F)F (centres unmarked) [flecainide]"
  classification: "Fulfilled"
- molecule: "O=C(CCCN1CCC(O)(c2ccc(Cl)cc2)CC1)c1ccc(F)cc1 [haloperidol]"
  classification: "Fulfilled"
- molecule: "CC(=O)Nc1ccc(O)cc1 [acetaminophen]"
  classification: "Fulfilled"
- molecule: "CCN(CC)CCNC(=O)c1ccc(N)cc1 [procainamide]"
  classification: "Fulfilled"
- molecule: "CC1COc2c(N3CCN(C)CC3)c(F)cc3c(=O)c(C(=O)O)cn1c23 (centres unmarked) [ofloxacin]"
  classification: "Fulfilled"
- molecule: "CN1CCN(C2=Nc3cc(Cl)ccc3Nc3ccccc32)CC1 [clozapine]"
  classification: "Fulfilled"
- molecule: "CN(C)CCCN1c2ccccc2CCc2ccccc21 [imipramine]"
  classification: "Fulfilled"
- molecule: "Cc1cc(NS(=O)(=O)c2ccc(N)cc2)no1 [sulfamethoxazole]"
  classification: "Fulfilled"
- molecule: "CNCCC(Oc1ccc(C(F)(F)F)cc1)c1ccccc1 (centres unmarked) [fluoxetine]"
  classification: "Not fulfilled"
- molecule: "CC[C@H]1OC(=O)[C@H](C)[C@@H](O[C@H]2C[C@@](C)(OC)[C@@H](O)[C@H](C)O2)[C@H](C)[C@@H](O[C@@H]2O[C@H](C)C[C@H](N(C)C)[C@H]2O)[C@](C)(OC)C[C@@H](C)C(=O)[C@H](C)[C@@H](O)[C@]1(C)O [clarithromycin]"
  classification: "Fulfilled"
- molecule: "C1CCC(C(CC2CCCCN2)C2CCCCC2)CC1 (centres unmarked) [perhexiline]"
  classification: "Not fulfilled"
